test system: HIV-1 infection of TZM-bl cells; assay: HIV-1 infectivity enhancement assay, β-galactosidase luminescence; format: cell-based; conditions: absolute infection signal, HIV-1 on TZM-bl cells, β-galactosidase luminescence
assay.metric: Abs. Inf.
Would you mind answering with just the numeric figure?

// query State, in one line, measured Abs. Inf. of `QCKIKQII`
// result 206.7

// query State, in one line, measured Abs. Inf. of `CKFKQFF`
// result 260

// query State, in one line, measured Abs. Inf. of `CKFKFQFNMWQ`
// result 26320

// query State, in one line, measured Abs. Inf. of `KIRGKFEKED`
// result 643.3

// query State, in one line, measured Abs. Inf. of `NMWQKIKQII`
// result 283.3

// query State, in one line, measured Abs. Inf. of `PPFHPPPFHP`
// result 263.3

// query State, in one line, measured Abs. Inf. of `RLRLTLC`
// result 1334

// query State, in one line, measured Abs. Inf. of `KIKQIINMWQ`
// result 9363

---

system: HIV-1 infection of TZM-bl cells; assay: HIV-1 infectivity enhancement assay, β-galactosidase luminescence; assay type: cell-based; settings: HIV-1 infection of TZM-bl cells, infection rate relative to EF-C, log10; data of Figure 2D
Using Log10 Infection Rel EF-C as the sorting value, the categories are category 1 (below -1), category 2 (-1 to below -0.5), category 3 (-0.5 or more)

// query Which of the defined bands does the recorded Log10 Infection Rel EF-C of `CKIKIQIII` sit within?
// result category 3

// query Which of the defined bands does the recorded Log10 Infection Rel EF-C of `KFKFQFNMWQ` sit within?
// result category 3

// query Which of the defined bands does the recorded Log10 Infection Rel EF-C of `CKIKQII` sit within?
// result category 1

// query Which of the defined bands does the recorded Log10 Infection Rel EF-C of `QCKIKQIINM` sit within?
// result category 3

// query Which of the defined bands does the recorded Log10 Infection Rel EF-C of `KKFQKKFQ` sit within?
// result category 1

// query Which of the defined bands does the recorded Log10 Infection Rel EF-C of `KIKIQI` sit within?
// result category 1

// query Which of the defined bands does the recorded Log10 Infection Rel EF-C of `QCKFKFQFNMWQ` sit within?
// result category 3

// query Which of the defined bands does the recorded Log10 Infection Rel EF-C of `KIKIQIMWNQ` sit within?
// result category 3

// query Which of the defined bands does the recorded Log10 Infection Rel EF-C of `RGDKIKIQI` sit within?
// result category 1

// query Which of the defined bands does the recorded Log10 Infection Rel EF-C of `CQFQFQF` sit within?
// result category 3

// query Which of the defined bands does the recorded Log10 Infection Rel EF-C of `EIEIQINMWQ` sit within?
// result category 2

// query Which of the defined bands does the recorded Log10 Infection Rel EF-C of `QCKFKQFFNM` sit within?
// result category 3

// query Which of the defined bands does the recorded Log10 Infection Rel EF-C of `QCKIKIQI` sit within?
// result category 2

// query Which of the defined bands does the recorded Log10 Infection Rel EF-C of `CKAKAQANM` sit within?
// result category 1

// query Which of the defined bands does the recorded Log10 Infection Rel EF-C of `EIEIQINM` sit within?
// result category 1

// query Which of the defined bands does the recorded Log10 Infection Rel EF-C of `KIKIQINMWA` sit within?
// result category 3

// query Which of the defined bands does the recorded Log10 Infection Rel EF-C of `QCKAKAQA` sit within?
// result category 1

// query Which of the defined bands does the recorded Log10 Infection Rel EF-C of `CKYKYQY` sit within?
// result category 1

// query Which of the defined bands does the recorded Log10 Infection Rel EF-C of `CKFKQFF` sit within?
// result category 1

// query Which of the defined bands does the recorded Log10 Infection Rel EF-C of `RGDCKFKFQF` sit within?
// result category 2

// query Which of the defined bands does the recorded Log10 Infection Rel EF-C of `KAKAQANMWQ` sit within?
// result category 1

// query Which of the defined bands does the recorded Log10 Infection Rel EF-C of QCKIKQIINMWQ [reference compound] sit within?
// result category 3

// query Which of the defined bands does the recorded Log10 Infection Rel EF-C of `KIKIQINMW` sit within?
// result category 3

// query Which of the defined bands does the recorded Log10 Infection Rel EF-C of `RGECKFKFQF` sit within?
// result category 3

// query Which of the defined bands does the recorded Log10 Infection Rel EF-C of `KFKQFFNMWQ` sit within?
// result category 1

// query Which of the defined bands does the recorded Log10 Infection Rel EF-C of `CKFKFQFNMW` sit within?
// result category 3

// query Which of the defined bands does the recorded Log10 Infection Rel EF-C of `KIKIQIMQWN` sit within?
// result category 3

// query Which of the defined bands does the recorded Log10 Infection Rel EF-C of `CKWKWQW` sit within?
// result category 2

// query Which of the defined bands does the recorded Log10 Infection Rel EF-C of `HGEHGEHGE` sit within?
// result category 1

// query Which of the defined bands does the recorded Log10 Infection Rel EF-C of `MKIKIQINM` sit within?
// result category 2

// query Which of the defined bands does the recorded Log10 Infection Rel EF-C of `CKAKAQANMWQ` sit within?
// result category 1

// query Which of the defined bands does the recorded Log10 Infection Rel EF-C of `CKFKQFFNMWQ` sit within?
// result category 3

// query Which of the defined bands does the recorded Log10 Infection Rel EF-C of `RGEKIKIQINM` sit within?
// result category 2

// query Which of the defined bands does the recorded Log10 Infection Rel EF-C of `KIKIQIAMWQ` sit within?
// result category 3

// query Which of the defined bands does the recorded Log10 Infection Rel EF-C of `KYKGAIIGNIK` sit within?
// result category 1

// query Which of the defined bands does the recorded Log10 Infection Rel EF-C of `KLKQLL` sit within?
// result category 1

// query Which of the defined bands does the recorded Log10 Infection Rel EF-C of `RGDCKIKIQINM` sit within?
// result category 2

// query Which of the defined bands does the recorded Log10 Infection Rel EF-C of `CKFKQFFNM` sit within?
// result category 3

// query Which of the defined bands does the recorded Log10 Infection Rel EF-C of `TKTLTKTL` sit within?
// result category 1

---

assay: Turbidity, derived count rate of scattered light; assay type: physicochemical; settings: category 1 / 0, no key given
assay.metric: Zeta Count Rate Category
Would you mind answering with just the numeric figure?

// query State, in one line, measured Zeta Count Rate Category of KIKIQIII [TG7]
// result 0

// query State, in one line, measured Zeta Count Rate Category of KIKIQII [TG1 / (KM4)]
// result 1

// query State, in one line, measured Zeta Count Rate Category of KIKQIINMWQ [JG2]
// result 1

// query State, in one line, measured Zeta Count Rate Category of QCKIKQIINM [CK5]
// result 1

// query State, in one line, measured Zeta Count Rate Category of RGECKFKFQF [CN16]
// result 1

// query State, in one line, measured Zeta Count Rate Category of KAKQAANMWQ [JG6]
// result 1

// query State, in one line, measured Zeta Count Rate Category of KYKYQY [KB1]
// result 0

// query State, in one line, measured Zeta Count Rate Category of HIHIQIC [CN12]
// result 1

// query State, in one line, measured Zeta Count Rate Category of CKIKQIINMWQ [MG5a / CK17]
// result 1

---

Experiment: Turbidity, derived count rate of scattered light
Type: physicochemical
Conditions: derived count rate of scattered light; mean, std deviation in separate column
Procedure: 4 µL of 1 mg/mL peptide fibrils solution is added to a 20 µL, 50 µM ThT–solution in PBS. The mixture is incubated for 15 min at RT to allow binding of ThT dye with β–sheet rich structures. […] Fluorescence spectra were recorded on an Infinite® M1000 PRO microplate reader (Tecan) at λem = 488 nm upon excitation at λex = 440 nm with 10 nm bandwidths and multiple reads per well (3×3). […] Furthermore, fluorescence microscopy was conducted by staining 1 µL preformed fibrils (1 mg/mL) with 9 µL ThT (50 µM). […]
Field: Zeta Count Rate / kcps. Provide a value for each of the substances that follow.
Number only, in kcps; omit the unit.

// query State, in one line, measured Zeta Count Rate / kcps of RGDKIKIQINMWQ [MG9a]
// result 1554

// query State, in one line, measured Zeta Count Rate / kcps of QCKFKFQFNMWQ [CK7]
// result 1208

// query State, in one line, measured Zeta Count Rate / kcps of KIKIQINMW [JGB1 /TM85]
// result 239.6

// query State, in one line, measured Zeta Count Rate / kcps of KIKIQINMWWQ [VH11]
// result 3893

// query State, in one line, measured Zeta Count Rate / kcps of RGDKIKIQINM [MG8a / CN17]
// result 57.2

// query State, in one line, measured Zeta Count Rate / kcps of RGDKIKIQIC [MG7/CN1]
// result 7509

// query State, in one line, measured Zeta Count Rate / kcps of CKFKQFFNMWQ [CK13]
// result 8210

// query State, in one line, measured Zeta Count Rate / kcps of MKIKIQINMWQ [TM52]
// result 1475

// query State, in one line, measured Zeta Count Rate / kcps of KIKIQINM [JGB2]
// result 262.1

// query State, in one line, measured Zeta Count Rate / kcps of KIKIQI [JJA4]
// result 108.3

// query State, in one line, measured Zeta Count Rate / kcps of CKIKQIINMWQ [MG5a / CK17]
// result 8317

// query State, in one line, measured Zeta Count Rate / kcps of QCKIKQIINM [CK5]
// result 20551.06667

// query State, in one line, measured Zeta Count Rate / kcps of QCKFKFQF [CK9]
// result 2669

// query State, in one line, measured Zeta Count Rate / kcps of CKIKQII [MG4a]
// result 74.6

// query State, in one line, measured Zeta Count Rate / kcps of RGDKIKIQINMC [psis29]
// result 1404

// query State, in one line, measured Zeta Count Rate / kcps of KIKIQINMWWWQ [VH12]
// result 7596.3

// query State, in one line, measured Zeta Count Rate / kcps of CKFKQFFNM [CK14]
// result 27264.3

// query State, in one line, measured Zeta Count Rate / kcps of QCKAKAQANMWQ [CK22]
// result 427.5

// query State, in one line, measured Zeta Count Rate / kcps of CKFKFQFNMW [KB14]
// result 4107
